- experimental.system: AgBem1-D1
- experiment: SPOT peptide array binding signal intensity (averaged, normalized) (arbitrary units (background-subtracted, floor 0; scale differs between SH3 domains)); higher = stronger binding of the SH3 domain to the peptide
Kindly supply the reported SPOT peptide array binding signal intensity values for the records listed here.
Could you keep your reply to the number by itself?

SPOT peptide array binding signal intensity in this record for `KFIPSRPAPKPPSSA` : 98

SPOT peptide array binding signal intensity in this record for `PELAPKREAPKPPAN` : 7.5

SPOT peptide array binding signal intensity in this record for `GPPPPLPPPLFPSSS` : 31

SPOT peptide array binding signal intensity in this record for `VATSTSPKLPPRGKQ` : 8.5

SPOT peptide array binding signal intensity in this record for `ISNFVPPNLPMRRFK` : 124

SPOT peptide array binding signal intensity in this record for `KLSRGRYGLPLSSRP` : 37

SPOT peptide array binding signal intensity in this record for `QPQRTAPKPPISAPR` : 128

SPOT peptide array binding signal intensity in this record for `RNNRPVPPPPPMRTT` : 129

SPOT peptide array binding signal intensity in this record for `VSKLRSPNTPRRLRK` : 116

SPOT peptide array binding signal intensity in this record for `VQKRKLPLPGSIASA` : 7.25

SPOT peptide array binding signal intensity in this record for `YRRKSIPFAPHQITA` : 21.5

SPOT peptide array binding signal intensity in this record for `IPSRPAPKPPSSASA` : 35

SPOT peptide array binding signal intensity in this record for `SRQAIPPPVPNRPGG` : 0.5

SPOT peptide array binding signal intensity in this record for `HPRFVSPRIPSRIVK` : 182

SPOT peptide array binding signal intensity in this record for `PLQSKIPMLPSRRTM` : 26.5

SPOT peptide array binding signal intensity in this record for `APKREAPKPPANTSP` : 34

SPOT peptide array binding signal intensity in this record for `GAGERPRLVPRPINV` : 23

SPOT peptide array binding signal intensity in this record for `FPGKKSPRLPHRNKK` : 47.5

SPOT peptide array binding signal intensity in this record for `PSRRDSLSIPRAVDA` : 56

SPOT peptide array binding signal intensity in this record for `RPPRPPPKPLHLRTE` : 113

SPOT peptide array binding signal intensity in this record for `KKAPPPVVKPKPRNF` : 44.5

SPOT peptide array binding signal intensity in this record for `FVLRYYILIPHEQWD` : 190
